test system: BT-549 breast; assay: NCI-60 one-dose screen, 48 h; details: 10 µM unless noted
Compounds without any hit were thinned out: in the full panel of roughly 83,000, 20% have a hit. Active and inactive are the calls of the source. Rule for the calls: active = growth percent below 10; inactive = the rest.
Can you answer with just one of these options? active, inactive

What outcome does the record of this test show for `CCN1CC(=O)N(/N=C2\C(=O)Nc3ccccc32)C1=S` ?
inactive

Any idea what this test logged for `CCCCOC(=O)OCc1cc(=O)c(O)co1` ?
inactive

Test call for this molecule, please: `S=C(Nc1ccc(-c2nc(N3CCOCC3)c3cccn3n2)cc1)Nc1cccnc1`
inactive

Could you kindly confirm the outcome this assay logged for `CCCCCCCCn1ccc2cc(NC(=O)CN3CCN(c4nc(C)cc(Cl)n4)CC3)ccc21` ?
inactive

What was the test verdict on `COC(=O)[C@H]1CCCN1C[C@@H](O)CN1C(=O)/C(=C\c2cc(OC)c(OC)c(OC)c2)c2ccccc21` ?
inactive

Dear all, I need the recorded test outcome for `CCN(CC)c1nc(SCc2ccccc2Cl)ncc1C` , thank you.
inactive

Give the logged outcome of this assay for the following molecule: `CC(C)=NNc1ccccn1`
inactive

I'd appreciate the recorded outcome for `CCN(CC)CCSc1nc(-c2ccccc2)c(C#N)c(=O)[nH]1` from this test.
inactive

GET /call?item= `CCn1c(SCC(=O)c2ccc(Br)cc2)nnc1-c1ccncc1` returns the recorded outcome of this test.
inactive
